This section presents molecules with their documented pKi values.
Target: recombinant human 5-HT5A receptor (Homo sapiens, UniProt P47898)
Sequence (P47898 whole entry): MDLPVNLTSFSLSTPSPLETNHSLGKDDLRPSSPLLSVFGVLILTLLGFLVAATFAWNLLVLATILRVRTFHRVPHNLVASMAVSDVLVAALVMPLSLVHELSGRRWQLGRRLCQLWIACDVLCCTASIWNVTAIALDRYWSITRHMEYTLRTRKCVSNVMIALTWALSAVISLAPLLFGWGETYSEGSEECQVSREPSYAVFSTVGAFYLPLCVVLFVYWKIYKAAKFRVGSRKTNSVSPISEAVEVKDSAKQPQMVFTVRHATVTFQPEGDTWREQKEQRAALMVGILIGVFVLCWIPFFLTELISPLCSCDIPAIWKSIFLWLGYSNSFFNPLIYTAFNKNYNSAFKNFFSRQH
Test: [3H]LSD radioligand binding assay, membranes of HEK-EBNA cells transiently expressing 5-HT5A receptors
Details: [3H]LSD approx. 1 nM, SPA beads, 120 min at room temperature; Ki from IC50 by Cheng-Prussoff equation
Description: A [^3H]LSD radioligand binding assay was used to determine the affinity of the compounds for the recombinant human 5-HT5A receptor, in membranes from transiently (cDNA) expressed 5-HT5A receptors in Human Embryonic Kidney-EBNA (HEK-EBNA) cells. […] Bound ligand was determined using a Packard Topcount scintillation counter. IC50 values were calculated using a non-linear curve fitting program and Ki values calculated using the Cheng-Prussoff equation.
For clarity, pKi is expressed as the negative log10 of concentration in mol/L.

Solved cases below.
*Q* API: value(readout=pKi, system=recombinant human 5-HT5A receptor (Homo sapiens, UniProt P47898)) for record O=C(c1ccc(CN2CCOCC2)cc1)c1cccc2nc(N[C@@H]3CCc4ccccc43)ccc12
*A* 6.17

*Q* API: value(readout=pKi, system=recombinant human 5-HT5A receptor (Homo sapiens, UniProt P47898)) for record COc1cccc2c1C(Nc1ccc3c(NCc4cccc5[nH]ccc45)cccc3n1)CCC2 (racemic)
*A* 7.80

*Q* API: value(readout=pKi, system=recombinant human 5-HT5A receptor (Homo sapiens, UniProt P47898)) for record ON=C(c1ccccc1)c1cccc2nc(N[C@@H]3CCc4ccccc43)ccc12
*A* 8.81

*Q* API: value(readout=pKi, system=recombinant human 5-HT5A receptor (Homo sapiens, UniProt P47898)) for record Cc1cc(Nc2cccc3nc(N[C@@H]4CCc5ccccc54)ccc23)n(C)n1
*A* 7.48

*Q* API: value(readout=pKi, system=recombinant human 5-HT5A receptor (Homo sapiens, UniProt P47898)) for record COc1cccc2c1C(Nc1ccc3c(NCc4c[nH]cn4)cccc3n1)CC2 (centres unmarked)
*A* 8.63

***
*Q* API: value(readout=pKi, system=recombinant human 5-HT5A receptor (Homo sapiens, UniProt P47898)) for record O=S(=O)(Nc1cccc2nc(N[C@@H]3CCc4ccccc43)ccc12)c1ccc(Cl)s1
*A* 8.44

*Q* API: value(readout=pKi, system=recombinant human 5-HT5A receptor (Homo sapiens, UniProt P47898)) for record COc1ccc2c(c1)C(Nc1ccc3c(NS(=O)(=O)c4ccc(F)cc4)cccc3n1)CC2 (racemic) [Example 21]
*A* 7.80

*Q* API: value(readout=pKi, system=recombinant human 5-HT5A receptor (Homo sapiens, UniProt P47898)) for record c1cncc(CNc2cccc3nc(NC4COc5ccccc54)ccc23)c1 (racemic) [Example 18]
*A* 7.66

*Q* API: value(readout=pKi, system=recombinant human 5-HT5A receptor (Homo sapiens, UniProt P47898)) for record c1ccc2c(c1)CC[C@H]2Nc1ccc2c(Nc3ccc4[nH]ccc4c3)cccc2n1
*A* 8.22

---

Target: recombinant human 5-HT5A receptor (Homo sapiens, UniProt P47898)
Assay: [3H]LSD radioligand binding assay, membranes of HEK-EBNA cells transiently expressing 5-HT5A receptors
Details: [3H]LSD approx. 1 nM, SPA beads, 120 min at room temperature; Ki from IC50 by Cheng-Prussoff equation
observation type: Ki

Solved cases below.
*Q* Give the measured Ki of ON=C(c1cccs1)c1cccc2nc(N[C@@H]3CCc4ccccc43)ccc12 .
*A* 3.64 nM

*Q* Give the measured Ki of COc1ccc2c(c1)C(Nc1ccc3c(NCc4cccc(S(C)(=O)=O)c4)cccc3n1)CC2 (single isomer, unassigned; (+)) .
*A* 19 nM

*Q* Give the measured Ki of O=C(c1cccs1)c1cccc2nc(N[C@@H]3CCc4ccccc43)ccc12 .
*A* 33.4 nM

*Q* Give the measured Ki of Fc1ccc(CNCc2cccc3nc(N[C@@H]4CCc5ccccc54)ccc23)cc1 .
*A* 151 nM

*Q* Give the measured Ki of c1ccc2c(c1)CC[C@H]2Nc1ccc2c(Nc3ccc4cc[nH]c4c3)cccc2n1 .
*A* 4.7 nM

***
*Q* Give the measured Ki of c1ccc2c(c1)CC[C@H]2Nc1ccc2c(NCc3ncc[nH]3)cccc2n1 .
*A* 22.5 nM

*Q* Give the measured Ki of Cn1cc(CNc2cccc3nc(N[C@@H]4CCc5ccccc54)ccc23)cn1 .
*A* 25.6 nM

*Q* Give the measured Ki of O=C(c1cccc(F)c1)c1cccc2nc(N[C@@H]3CCc4ccccc43)ccc12 .
*A* 117 nM

*Q* Give the measured Ki of COc1ccc2c(c1)C(Nc1ccc3c(NS(=O)(=O)c4cc(F)c(F)c(F)c4)cccc3n1)CC2 (single isomer, unassigned; (+)) .
*A* 18.1 nM
